All values here come from patent US8378117B2.

Kindly supply the reported CB2 receptor binding percent inhibition values for the records listed here.
# system: CB2 receptor (Homo sapiens, UniProt P34972)
# Construct: expressed in transfected cells
# Sequence (P34972 whole entry): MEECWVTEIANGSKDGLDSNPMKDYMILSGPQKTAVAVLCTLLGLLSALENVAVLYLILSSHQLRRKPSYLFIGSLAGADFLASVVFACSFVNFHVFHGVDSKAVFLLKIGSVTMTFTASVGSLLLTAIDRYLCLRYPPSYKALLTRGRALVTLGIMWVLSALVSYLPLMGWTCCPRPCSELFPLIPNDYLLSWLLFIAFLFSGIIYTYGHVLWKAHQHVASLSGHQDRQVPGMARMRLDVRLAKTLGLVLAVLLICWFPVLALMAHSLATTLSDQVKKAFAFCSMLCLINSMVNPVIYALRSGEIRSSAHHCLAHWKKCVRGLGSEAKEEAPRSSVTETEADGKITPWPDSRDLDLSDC
# procedure_summary: Binding assay for CB2 agonists or inverse agonists (SK-N-MC membranes, [3H]-CP-55,940)
# condition_info: test concentration not stated
# Method: The human CB1 and CB2 receptors were stably expressed in SK-N-MC cells transfected with pcDNA3 CB-1 (human) or pcDNA3 CB-2 (human). […] On the day of the assay, the pellet was thawed on ice and diluted in assay buffer (50 mM Tris-HCl, 5 mM MgCl2, 2.5 mM EDTA, 0.5 mg/mL fatty acid free bovine serum aldumin, pH 7.5). […] The Unifilter plate was dried, a scintillation cocktail was added to each well and the counts representing binding were quantitated in a TopCount scintillation counter. […]
One number for each entry, in %.

# annotated cases, reported CB2 receptor binding percent inhibition shown
CCOC(=O)[C@@H]1C2CCC(C2)[C@@H]1NC(=O)c1nn(-c2ccc(Cl)cc2Cl)c2c1CCCCC2Cc1cccc(Cl)c1 (some centres unmarked); 48
COC(=O)[C@H](Cc1ccc(F)cc1)NC(=O)c1nn(C2CCCCC2)c2c1CCCCC2Cc1ccc(F)cc1 (some centres unmarked); 69
C[C@H](NS(=O)(=O)/C=C/c1n[nH]c2c1CCCCC2Cc1ccc(F)cc1)c1ccccc1 (some centres unmarked); 100
O=C(NC1CC1)c1nn(Cc2ccc(Cl)cc2)c2c1CCCCC2Cc1cccc(Cl)c1 (centres unmarked); 36
O=C(N[C@@H](CO)c1ccccc1)c1nn(C2CCCCC2)c2c1CCCCC2Cc1ccc(F)cc1 (stereo in doubt); 55

For each of the molecules below, note its CB2 receptor binding percent inhibition.
1. O=C(NC1CCC1)c1nn(C2CCCCC2)c2c1CCCCC2Cc1ccc(Cl)cc1 (centres unmarked)
2. CC12CCC(C1)C(C)(C)[C@H]2NC(=O)c1nn(C2CCCCC2)c2c1CCCCC2Cc1cccc(Cl)c1 (some centres unmarked)
3. O=C(NCc1ccc(C(F)(F)F)cc1)c1nn(C2CCCCC2)c2c1CCCCC2Cc1ccc(F)cc1 (centres unmarked)

**Result**
1: 10; 2: 36; 3: 52
